Entry source: the supplement of paper PMC8728848

molecular target: Neu5Ac(a2-6)Gal(b1-4)GlcNAc(b1-3)Gal(b1-4)[Fuc(a1-3)]GlcNAc(b1-3)Gal(b1-4)[Fuc(a1-3)]GlcNAc; assay: glycan array binding signal (z-score within array); higher = stronger binding; settings: glycan notation: IUPAC condensed, linker removed
The sample as a whole holds a higher share of the strongest signals than the screen did.
QUANTITY_MEASURED: glycan array binding signal (z-score)

[[record]]
binder = "PpFlo1 (Pichia pastoris) (protein) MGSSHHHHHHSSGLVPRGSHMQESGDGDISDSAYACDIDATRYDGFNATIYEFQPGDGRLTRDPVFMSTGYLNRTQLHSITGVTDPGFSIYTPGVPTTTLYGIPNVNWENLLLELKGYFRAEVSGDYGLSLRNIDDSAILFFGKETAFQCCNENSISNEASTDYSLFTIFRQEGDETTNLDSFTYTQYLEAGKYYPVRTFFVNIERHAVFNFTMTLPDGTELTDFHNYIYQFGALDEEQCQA"
assay_result = 0.701

[[record]]
binder = "Clec49 (Caenorhabditis elegans) (protein) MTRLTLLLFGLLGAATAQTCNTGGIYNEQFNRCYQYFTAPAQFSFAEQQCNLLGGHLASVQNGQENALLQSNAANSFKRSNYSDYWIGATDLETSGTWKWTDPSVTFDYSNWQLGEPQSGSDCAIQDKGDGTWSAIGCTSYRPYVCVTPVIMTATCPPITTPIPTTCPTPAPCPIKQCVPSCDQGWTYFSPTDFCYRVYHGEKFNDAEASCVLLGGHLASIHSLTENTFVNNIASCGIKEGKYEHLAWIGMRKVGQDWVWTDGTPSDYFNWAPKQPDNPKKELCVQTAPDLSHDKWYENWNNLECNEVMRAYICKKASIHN"
assay_result = 0.181

[[record]]
binder = "CLEC-6 (Homo sapiens), Q8WXI8 (protein) MGLEKPQSKLEGGMHPQLIPSVIAVVFILLLSVCFIASCLVTHHNFSRCKRGTGVHKLEHHAKLKCIKEKSELKSAEGSTWNCCPIDWRAFQSNCYFPLTDNKTWAESERNCSGMGAHLMTISTEAEQNFIIQFLDRRLSYFLGLRDENAKGQWRWVDQTPFNPRRVFWHKNEPDNSQGENCVVLVYNQDKWAWNDVPCNFEASRICKIPGTTLN"
assay_result = 1.59

[[record]]
binder = "Mermaid1 (Stilbonema majum) (protein) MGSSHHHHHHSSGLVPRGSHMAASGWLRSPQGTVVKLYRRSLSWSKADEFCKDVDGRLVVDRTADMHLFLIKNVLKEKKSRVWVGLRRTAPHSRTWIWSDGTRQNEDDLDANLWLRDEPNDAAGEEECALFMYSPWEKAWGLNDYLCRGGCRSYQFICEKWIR"
assay_result = -0.822

[[record]]
binder = "Clrb (Mus musculus) (protein) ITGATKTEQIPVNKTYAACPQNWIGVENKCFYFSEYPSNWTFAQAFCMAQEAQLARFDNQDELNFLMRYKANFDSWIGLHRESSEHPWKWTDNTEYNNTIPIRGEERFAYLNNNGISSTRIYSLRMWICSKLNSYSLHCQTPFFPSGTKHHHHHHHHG"
assay_result = -0.211

